Molecular target: human TLR7 (Homo sapiens)
Sequence (Q9NYK1 27-1049): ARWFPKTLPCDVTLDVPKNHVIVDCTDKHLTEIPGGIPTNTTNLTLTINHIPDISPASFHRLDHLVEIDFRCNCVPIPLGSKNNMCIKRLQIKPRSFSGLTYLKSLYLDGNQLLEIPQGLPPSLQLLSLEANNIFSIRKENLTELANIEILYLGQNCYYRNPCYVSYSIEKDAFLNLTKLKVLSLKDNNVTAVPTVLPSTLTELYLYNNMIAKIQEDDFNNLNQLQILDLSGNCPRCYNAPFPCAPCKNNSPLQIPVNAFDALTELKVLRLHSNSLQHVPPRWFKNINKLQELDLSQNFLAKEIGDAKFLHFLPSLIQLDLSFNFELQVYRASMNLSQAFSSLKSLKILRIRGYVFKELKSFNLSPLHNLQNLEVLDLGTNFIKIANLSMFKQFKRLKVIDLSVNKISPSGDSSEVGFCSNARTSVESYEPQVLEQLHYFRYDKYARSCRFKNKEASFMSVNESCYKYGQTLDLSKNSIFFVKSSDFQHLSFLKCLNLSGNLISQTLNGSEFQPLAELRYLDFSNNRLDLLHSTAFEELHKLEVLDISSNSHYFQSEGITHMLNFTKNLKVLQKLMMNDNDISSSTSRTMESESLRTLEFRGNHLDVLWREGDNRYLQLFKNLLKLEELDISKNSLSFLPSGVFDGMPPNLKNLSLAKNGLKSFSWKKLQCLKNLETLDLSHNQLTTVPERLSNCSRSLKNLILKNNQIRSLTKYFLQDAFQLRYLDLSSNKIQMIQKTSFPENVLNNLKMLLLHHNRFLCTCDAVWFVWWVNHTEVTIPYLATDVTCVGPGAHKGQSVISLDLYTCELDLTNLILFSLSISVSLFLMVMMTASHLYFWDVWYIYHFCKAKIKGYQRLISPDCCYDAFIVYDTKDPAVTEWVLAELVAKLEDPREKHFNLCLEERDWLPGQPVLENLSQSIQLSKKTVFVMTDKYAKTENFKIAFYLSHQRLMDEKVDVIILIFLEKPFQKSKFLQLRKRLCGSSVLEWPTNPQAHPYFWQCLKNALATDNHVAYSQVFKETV
Experiment: TLR7 inhibition reporter assay (HEK-Blue cells, SEAP reporter)
Settings: HEK-Blue cells overexpressing human TLR7; stimulated with gardiquimod 7.5 μM; 22 hour incubation; SEAP readout
Excerpt: TLR7/8/9 Inhibition Reporter Assays HEK-Blue™-cells (Invivogen) overexpressing human TLR7, TLR8 or TLR9 receptors were used for screening inhibitors of these receptors using an inducible SEAP (secreted embryonic alkaline phosphatase) reporter gene under the control of the […] minimal promoter fused to five NF-κB and AP-1-binding sites. […]
Measured pIC50 values are reported for all entries that follow.
pIC50 here: minus log base 10 of the concentration, concentration in moles per litre.

So what does the record say about pIC50 for COc1ccc(-c2cn3cc(C4CCN(C5CCN(C(C)C)CC5)CC4)cc(C)c3n2)cc1F [Example 5] ?
5.52

Entry under review: CC(C)CN1CCCC(N2CCC(c3cc(F)c4nc(-c5ccc(S(C)(=O)=O)cc5)cn4c3)CC2)CC1 (single isomer, unassigned) [Example 125] . Reported pIC50?
4.90
